Target: hERG potassium channel (Homo sapiens, UniProt Q12809)
Sequence (Q12809 whole entry): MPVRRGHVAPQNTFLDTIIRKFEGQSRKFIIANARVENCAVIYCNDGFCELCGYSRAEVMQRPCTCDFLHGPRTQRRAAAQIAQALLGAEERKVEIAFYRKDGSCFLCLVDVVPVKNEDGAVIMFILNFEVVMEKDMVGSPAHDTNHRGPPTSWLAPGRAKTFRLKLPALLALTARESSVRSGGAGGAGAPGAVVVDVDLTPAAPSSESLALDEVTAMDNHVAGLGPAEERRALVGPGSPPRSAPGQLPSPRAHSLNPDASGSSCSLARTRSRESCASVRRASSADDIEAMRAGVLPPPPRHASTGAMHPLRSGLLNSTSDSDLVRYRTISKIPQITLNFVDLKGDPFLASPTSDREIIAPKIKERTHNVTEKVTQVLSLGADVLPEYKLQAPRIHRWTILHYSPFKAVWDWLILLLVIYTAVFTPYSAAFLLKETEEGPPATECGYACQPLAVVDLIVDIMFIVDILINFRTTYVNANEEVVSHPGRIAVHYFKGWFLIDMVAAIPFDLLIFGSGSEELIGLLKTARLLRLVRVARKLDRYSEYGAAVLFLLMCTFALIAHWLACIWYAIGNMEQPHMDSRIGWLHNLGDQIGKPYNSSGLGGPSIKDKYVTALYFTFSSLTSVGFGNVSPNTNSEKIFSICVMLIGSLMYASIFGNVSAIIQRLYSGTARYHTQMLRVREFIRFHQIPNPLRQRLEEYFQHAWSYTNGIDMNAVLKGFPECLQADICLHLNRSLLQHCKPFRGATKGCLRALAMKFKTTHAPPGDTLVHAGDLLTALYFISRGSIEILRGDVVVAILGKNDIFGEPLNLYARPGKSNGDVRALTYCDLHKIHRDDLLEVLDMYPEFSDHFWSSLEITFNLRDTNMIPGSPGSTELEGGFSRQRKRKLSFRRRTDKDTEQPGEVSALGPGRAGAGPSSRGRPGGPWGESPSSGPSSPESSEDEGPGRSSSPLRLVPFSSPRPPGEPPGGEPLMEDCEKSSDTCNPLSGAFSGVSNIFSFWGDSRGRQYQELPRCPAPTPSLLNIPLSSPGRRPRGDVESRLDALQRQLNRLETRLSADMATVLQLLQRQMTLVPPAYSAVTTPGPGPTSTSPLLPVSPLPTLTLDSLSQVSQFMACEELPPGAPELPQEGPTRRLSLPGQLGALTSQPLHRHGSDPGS
pIC50: −log10 of the molar value.

| STRUCTURE_STRING | pIC50 |
| --- | --- |
| Cc1c(-c2ccc(O)cc2)n(Cc2ccc(OCCN3CCCCC3)cc2)c2ccc(O)cc12 | 4.89 |

Origin of measurements: paper doi:10.1101/2025.01.13.632836v7
